Record: IC50 reported on Glycogen synthase kinase-3 alpha (Homo sapiens, UniProt P49840).
Sequence (P49840 whole entry): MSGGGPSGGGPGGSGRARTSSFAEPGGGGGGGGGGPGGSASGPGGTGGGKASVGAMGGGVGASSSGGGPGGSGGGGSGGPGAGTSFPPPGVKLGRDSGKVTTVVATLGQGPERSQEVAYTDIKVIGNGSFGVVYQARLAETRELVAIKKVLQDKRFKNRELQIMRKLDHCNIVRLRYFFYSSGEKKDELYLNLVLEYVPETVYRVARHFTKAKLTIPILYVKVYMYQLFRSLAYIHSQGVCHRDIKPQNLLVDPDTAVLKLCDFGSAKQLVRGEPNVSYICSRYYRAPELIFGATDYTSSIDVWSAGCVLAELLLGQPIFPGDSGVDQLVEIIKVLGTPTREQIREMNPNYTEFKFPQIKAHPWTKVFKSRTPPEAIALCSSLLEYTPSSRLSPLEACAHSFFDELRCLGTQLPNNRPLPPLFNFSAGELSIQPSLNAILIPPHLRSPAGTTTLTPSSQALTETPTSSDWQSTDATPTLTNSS

query: Using the record for CCC1(c2cccc(-c3ccncc3OC)c2)C2=CN=NC2NC2=C1C(=O)CC(C)(C)C2 (stereo not drawn) , report its IC50.
result: < 100 nM

query: Similarly, CC[C@@]1(c2cccc(-c3ccnc4cc(F)cnc34)c2)C2=CN=NC2NC2=C1C(=O)NC(C)(C)C2 (stereo partly drawn) ?
result: < 100 nM

query: Similarly, CC[C@]1(c2cccc(-c3ccnc4ccc(Cl)cc34)c2)C2=CN=NC2NC2=C1C(=O)NC(C)(C)C2 (stereo partly drawn) ?
result: 100 to 1000 nM

---

Record: IC50 reported on Glycogen synthase kinase-3 beta (Homo sapiens, UniProt P49841).
Sequence (P49841 whole entry): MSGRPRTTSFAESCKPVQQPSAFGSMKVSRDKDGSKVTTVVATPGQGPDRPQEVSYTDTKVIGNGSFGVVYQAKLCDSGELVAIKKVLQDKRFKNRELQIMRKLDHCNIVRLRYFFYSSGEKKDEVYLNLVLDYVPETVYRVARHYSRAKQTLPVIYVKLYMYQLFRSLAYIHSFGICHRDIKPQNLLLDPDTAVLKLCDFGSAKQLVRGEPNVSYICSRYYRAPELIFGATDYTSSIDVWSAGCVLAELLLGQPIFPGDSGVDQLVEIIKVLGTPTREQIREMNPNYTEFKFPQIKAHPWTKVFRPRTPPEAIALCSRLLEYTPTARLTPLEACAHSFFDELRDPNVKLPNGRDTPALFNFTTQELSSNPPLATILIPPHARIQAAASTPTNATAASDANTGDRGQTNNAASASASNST

query: Using the record for CC[C@@]1(c2cccc(-c3ccncc3)c2)C2=C(CC(C)(C)CC2=O)NC2N=NC(C(F)(F)F)=C21 (stereo partly drawn) [US20250313563, Compound 917292] , report its IC50.
result: 0.1 to 1 µM

query: Similarly, CCC1(c2cccc(S(=O)(=O)C3CCOCC3)c2)C2=CN=NC2NC2=C1C(=O)CC(C)(C)C2 (stereo not drawn) [US20250313563, Compound 927344] ?
result: < 0.1 µM

query: Similarly, CCC1(c2cccc(N3CCN(C)CC3)c2)C2=CN=NC2NC2=C1C(=O)CC(C)(C)C2 (stereo not drawn) [US20250313563, Compound 810379] ?
result: > 5 µM

---

Record: pIC50 reported on UniProtKB P49840.
pIC50: −log10 of the molar value.

query: Using the record for CC[C@@]1(c2cccc(-c3ccnn3C)c2)C2=CN=NC2NC2=C1C(=O)CC(C)(C)C2 (stereo partly specified) [US20250313563, Compound 911993] , report its pIC50.
result: > 7.00

query: Similarly, Cn1nccc1S(=O)(=O)N1CCC2(CC1)C1=C(N=NC1)NC1=C2C(=O)CC(C)(C)C1 [US20250313563, Compound 932649] ?
result: > 7.00

query: Similarly, Cc1cc(S(=O)(=O)N2CCC3(CC2)C2=C(N=NC2)NC2=C3C(=O)CC(C)(C)C2)n(C)n1 [US20250313563, Compound 947608] ?
result: > 7.00

query: Similarly, CC1(C)CC(=O)C2=C(C1)NC1=C(CN=N1)C21CCN(S(=O)(=O)c2cccc(C(F)(F)F)c2)CC1 [US20250313563, Compound 947244] ?
result: > 7.00

query: Similarly, CCC1(c2cccc(C(C)(C)F)c2)C2=CN=NC2NC2=C1C(=O)N(C)CC2 (stereo unspecified) [US20250313563, Compound 913178] ?
result: 6.00 to 7.00

query: Similarly, CC[C@]1(c2cccc(-c3ccncc3OC3CC3)c2)C2=CN=NC2NC2=C1C(=O)NC(C)(C)C2 (stereo partly specified) [US20250313563, Compound 948643] ?
result: < 5.30

---

Record: IC50 reported on Glycogen synthase kinase-3 alpha (Homo sapiens, UniProt P49840).

query: Using the record for CC[C@]1(c2cc(-c3ccncc3)ccc2C)C2=CN=NC2NC2=C1C(=O)CC(C)(C)C2 (stereo partly specified) , report its IC50.
result: 100 to 1000 nM

query: Similarly, CC[C@]1(c2cccc(-c3cc(C)ncc3C)c2)C2=CN=NC2NC2=C1C(=O)CC(C)(C)C2 (stereo partly specified) ?
result: < 100 nM

query: Similarly, CC[C@@]1(c2cccc(N(C)c3ncccn3)c2)C2=CN=NC2NC2=C1C(=O)NC(C)(C)C2 (stereo partly specified) [US20250313563, Compound 943965] ?
result: 100 to 1000 nM

query: Similarly, CCC1(c2cccc(-c3cncn3C)c2)C2=C(CC(C)(C)CC2=O)NC2N=NC(C)=C21 (stereo unspecified) ?
result: < 100 nM

query: Similarly, CCC1(c2cccc(CN(C)C(=O)C(C)C)c2)C2=CN=NC2NC2=C1C(=O)CC(C)(C)C2 (stereo unspecified) ?
result: 100 to 1000 nM

query: Similarly, CC[C@@]1(c2cccc(-c3ccnn3C)c2)C2=CN=NC2NC2=C1C(=O)NC(C)(C)C2 (stereo partly specified) ?
result: 100 to 1000 nM

---

Record: IC50 reported on Glycogen synthase kinase-3 beta (Homo sapiens, UniProt P49841).

query: Notebook: pull reported IC50 for Glycogen synthase kinase-3 beta (Homo sapiens, UniProt P49841), entry CCC1(c2cccc(Br)c2)C2=CN=NC2NC2=C1C(=O)C(F)C(C)(C)C2 (stereo unspecified)
result: 100 to 1000 nM

query: Similarly, CC1(C)CC(=O)C2=C(C1)NC1=C(CN=N1)C21CCCCC1 ?
result: < 100 nM

query: Similarly, CC[C@@]1(c2cc(-c3ccncc3)ccc2F)C2=CN=NC2NC2=C1C(=O)CC(C)(C)C2 (stereo partly specified) ?
result: > 5000 nM

query: Similarly, CC[C@]1(c2cccc(-c3c(C)cnc4ccccc34)c2)C2=C(CC(C)(C)NC2=O)NC2=NN=CC21 (stereo partly specified) ?
result: 100 to 1000 nM

query: Similarly, CC[C@@]1(c2ccc(C)cc2)C2=CN=NC2NC2=C1C(=O)CC(C)(C)C2 (stereo partly specified) ?
result: > 5000 nM

query: Similarly, CC1(C)CC(=O)C2=C(C1)NC1=C(CN=N1)C21CN(c2ccccc2)C1 ?
result: < 100 nM

query: Similarly, CC1CCC12C1=C(N=NC1)NC1=C2C(=O)CC(C)(C)C1 (stereo unspecified) ?
result: 1000 to 5000 nM

query: Similarly, CCC1(c2cccc(S(=O)(=O)CC3CC3)c2)C2=CN=NC2NC2=C1C(=O)NC(C)(C)C2 (stereo unspecified) ?
result: 100 to 1000 nM

query: Similarly, CC1(C)CC(=O)C2=C(C1)NC1=C(CN=N1)[C@]2(C)c1cccc(-c2ccccc2)c1 ?
result: 100 to 1000 nM

query: Similarly, CC1(C)CC(=O)C2=C(C1)NC1=C(CN=N1)[C@@]21CC[C@H](C(F)(F)F)C1 ?
result: 100 to 1000 nM

query: Similarly, CC(=O)N1CC[C@@]2(C1)C[C@@]1(CO2)C2=C(N=NC2)NC2=C1C(=O)CC(C)(C)C2 ?
result: 1000 to 5000 nM

query: Similarly, CCC1(c2cccc(S(=O)(=O)C3CC(F)(F)C3)c2)C2=CN=NC2NC2=C1C(=O)CC(C)(C)C2 (stereo unspecified) ?
result: < 100 nM

query: Similarly, CC[C@]1(c2cccc(-c3cnn(C(F)F)c3)c2)C2=CN=NC2NC2=C1C(=O)NC(C)(C)C2 (stereo partly specified) ?
result: > 5000 nM

query: Similarly, Cn1cncc1-c1cccc([C@@]2(C)C3=C(CC(C)(C)CC3=O)NC3=C2C(CC(C)(C)C)N=N3)c1 (stereo partly specified) ?
result: > 5000 nM

query: Similarly, Cc1cccc2c1CC[C@@]21C2=C(N=NC2)NC2=C1C(=O)CC(C)(C)C2 ?
result: 100 to 1000 nM

query: Similarly, CC[C@]1(c2cccc(-c3ccnc(CCO)c3)c2)C2=CN=NC2NC2=C1C(=O)CC(C)(C)C2 (stereo partly specified) ?
result: > 5000 nM

query: Similarly, CC1(C)CC(=O)C2=C(C1)NC1=C(CN=N1)[C@@]21CCCN(S(=O)(=O)C2CC2)CC1 ?
result: 100 to 1000 nM

query: Similarly, CC1(C)CC(=O)C2=C(C1)NC1=C(CN=N1)[C@@]21COC2(CN(S(C)(=O)=O)C2)C1 ?
result: < 100 nM

query: Similarly, CC[C@]1(c2cccc(-c3ccnc(C(F)F)c3)c2)C2=CN=NC2NC2=C1C(=O)CC(C)(C)C2 (stereo partly specified) ?
result: > 5000 nM

query: Similarly, CC(C)(C)CC(=O)N1CC2(C1)CC1(CO2)C2=C(N=NC2)NC2=C1C(=O)CC(C)(C)C2 (stereo unspecified) ?
result: 1000 to 5000 nM

query: Similarly, CC1(C)CC(=O)C2=C(C1)NC1=C(CN=N1)C21CCN(S(=O)(=O)c2ccc(Cl)c(Cl)c2)CC1 ?
result: < 100 nM

query: Similarly, CC[C@@]1(c2cccc(-c3cnn(C)c3)c2)C2=CN=NC2NC2=C1C(=O)C[C@H](C)C2 (stereo partly specified) ?
result: 1000 to 5000 nM

query: Similarly, CC[C@@]1(c2cccc(C(F)(F)F)c2)C2=CN=NC2NC2=C1C(=O)NC[C@@H]2C (stereo partly specified) ?
result: 100 to 1000 nM

query: Similarly, CC[C@@]1(c2cccc(C(F)(F)F)c2)C2=CN=NC2NC2=C1C(=O)N(C(C)C)CC2 (stereo partly specified) ?
result: > 5000 nM

query: Similarly, CCC1(c2cccc(-c3cncn3C)c2)C2=CN=NC2NC2=C1C(=O)NC(C)(C)C2 (stereo unspecified) ?
result: < 100 nM

query: Similarly, CC1(C)CC(=O)C2=C(C1)NC1=C(CN=N1)C21CCC(F)(F)CC1 ?
result: 100 to 1000 nM
